Source: patent US8754071B2

Target: c-kit (Homo sapiens, UniProt P10721)
Construct: human Mo7e cells which endogenously express c-kit; endogenous in cells; host or cells: human Mo7e cells (promegakaryocytic leukemia line), stimulated with human recombinant SCF
Sequence (P10721 26-976): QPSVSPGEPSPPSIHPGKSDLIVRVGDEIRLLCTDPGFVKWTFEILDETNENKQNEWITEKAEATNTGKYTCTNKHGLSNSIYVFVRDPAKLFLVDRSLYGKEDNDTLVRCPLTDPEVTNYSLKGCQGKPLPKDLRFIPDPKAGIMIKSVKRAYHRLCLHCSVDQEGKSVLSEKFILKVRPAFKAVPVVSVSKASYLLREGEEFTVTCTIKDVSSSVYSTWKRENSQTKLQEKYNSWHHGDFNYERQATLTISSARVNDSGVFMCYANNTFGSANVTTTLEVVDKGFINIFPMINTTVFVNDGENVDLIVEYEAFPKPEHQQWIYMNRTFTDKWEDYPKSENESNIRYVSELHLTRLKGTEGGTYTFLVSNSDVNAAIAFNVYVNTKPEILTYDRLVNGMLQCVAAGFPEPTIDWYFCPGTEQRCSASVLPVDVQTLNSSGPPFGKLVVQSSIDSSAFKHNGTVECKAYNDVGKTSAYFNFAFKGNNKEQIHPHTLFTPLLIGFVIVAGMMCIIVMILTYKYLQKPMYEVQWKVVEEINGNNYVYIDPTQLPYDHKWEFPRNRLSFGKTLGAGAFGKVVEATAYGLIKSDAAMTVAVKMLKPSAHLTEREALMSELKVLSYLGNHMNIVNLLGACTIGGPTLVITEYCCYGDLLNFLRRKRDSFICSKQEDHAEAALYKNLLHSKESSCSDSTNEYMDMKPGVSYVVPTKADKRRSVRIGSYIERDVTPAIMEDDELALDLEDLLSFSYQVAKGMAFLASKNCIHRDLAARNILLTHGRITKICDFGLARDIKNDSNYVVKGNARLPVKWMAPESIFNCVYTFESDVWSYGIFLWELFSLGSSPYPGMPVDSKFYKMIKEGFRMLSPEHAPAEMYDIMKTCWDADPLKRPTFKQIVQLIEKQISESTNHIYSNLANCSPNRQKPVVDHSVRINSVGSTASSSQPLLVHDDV
Experiment: Mo7e cell proliferation assay (SCF dependent proliferation)
Format: cell-based
Details: Table 2; human Mo7e cells stimulated with SCF, 48 hours, CellTiter Glo; 1% FBS; read-out: c-kit (Mo7e)
QUANTITY KIND: pIC50
Numbers only, as −log10 of the molar value.

{"COMPOUND": "Cc1ccc(-c2noc(CNC(=O)C3CCOCC3)n2)cc1NC(=O)c1cnc2ccccn12 [F149]", "QUANTITY KIND": "pIC50", "QUANTITATIVE RESULT": 6.16}

Query: Find the recorded pIC50 belonging to Cc1ccc(-c2noc(CN3CC(O)C3)n2)cc1NC(=O)c1cnc2ccccn12 [F131] and report it.
Reply: 6.13
